Data origin: paper PMC12630348

target_or_test_system: recombinant AtPCO4 (Arabidopsis thaliana, UniProt Q9SJI9)
Construct: His tag followed by thrombin site (N); made in house; host or cells: E. coli BL21(DE3)
assay_name: AtPCO4 activity toward RAP2.12_2—17 with peptidomimetic, without peptidomimetic-AtPCO4 preincubation
Format: biochemical
experimental_setup: 200 μM peptidomimetic, 0.1 μM AtPCO4, 20 μM RAP2.12_2—17, 25 °C
Decide using x (slope between 0-5 min), Peptidomimetic rxn, no preincubation alone. Strictly below 0.06: t. Equal to or above 0.06: f.

| seq_string | target_or_test_system | category_label |
| --- | --- | --- |
| XGGAIISDFIPPPR [Peptidomimetic 8, 14-mer X… with N-terminal X = Nα-Me-Cys] | recombinant AtPCO4 (Arabidopsis thaliana, UniProt Q9SJI9) | f |
| XGGAIISDFIPPPR [Peptidomimetic 7, 14-mer X… with N-terminal X = 3MePro, Cys-analogue devoid of an amino group] | recombinant AtPCO4 (Arabidopsis thaliana, UniProt Q9SJI9) | t |
| XGGAIISDFIPPPR [Peptidomimetic 3, 14-mer X… with N-terminal X = penicillamine] | recombinant AtPCO4 (Arabidopsis thaliana, UniProt Q9SJI9) | t |
| XGGAIISDFIPPPR [Peptidomimetic 12, 14-mer X… with N-terminal X = AlG] | recombinant AtPCO4 (Arabidopsis thaliana, UniProt Q9SJI9) | t |
| XGGAIISDFIPPPR [Peptidomimetic 10, 14-mer X… with N-terminal X = Ser] | recombinant AtPCO4 (Arabidopsis thaliana, UniProt Q9SJI9) | f |

* * *

Collected x (slope between 0-5 min), Peptidomimetic rxn / CP rxn values appear next to each entry.
target_or_test_system: recombinant AtPCO4 (Arabidopsis thaliana)
Construct: His tag followed by thrombin site (N); made in house; host or cells: E. coli BL21(DE3)
assay_name: AtPCO4 activity toward RAP2.12_2—17 after 6 min aerobic preincubation of enzyme with peptidomimetic or control peptide (time course, LC-MS)
Format: biochemical
experimental_setup: 200 μM peptide, 6 min aerobic preincubation with 0.1 μM AtPCO4; 20 μM RAP2.12_2—17; 25 °C
experimental_endpoint: x (slope between 0-5 min), Peptidomimetic rxn / CP rxn

| seq_string | value_measured |
| --- | --- |
| XGGAIISDFIPPPR [Peptidomimetic 11, 14-mer X… with N-terminal X = hSer] | 0.29 |
| XGGAIISDFIPPPR [Peptidomimetic 13, 14-mer X… with N-terminal X = Pra] | 0.34 |
| XGGAIISDFIPPPR [Peptidomimetic 7, 14-mer X… with N-terminal X = 3MePro, Cys-analogue devoid of an amino group] | 0.78 |
| XGGAIISDFIPPPR [Peptidomimetic 1, 14-mer X… mimic of RAP2.12 with N-terminal X = D-Cys] | 0.28 |
| XGGAIISDFIPPPR [Peptidomimetic 6, 14-mer X… with N-terminal X = TM3C (thiomorpholine, cyclized thioether)] | 0.18 |
| XGGAIISDFIPPPR [Peptidomimetic 4, 14-mer X… with N-terminal X = S-methyl cysteine (linear thioether)] | 0.31 |
